Target: human PPARγ receptor (Homo sapiens, UniProt P37231)
Construct: expressed in transfected cells; host or cells: CV-1 cells, pSG5-based Gal4-PPAR expression vector
Assay: Luciferase assay using human PPARγ receptor (Gal4 chimera, CV-1 cells)
Format: cell-based
Settings: 24 h, 1 μM, luciferase activity of Pioglitazone at 1 μM = 100, read-out: PPARγ agonist activity, Relative activity
Structures can show the parent of a compound that is named as a salt.
quantity: Emax at 1 µM (%)

1. CC(Cc1cc2ccccc2s1)(C(=O)O)C(=O)NC1CCCCC1 (stereo not drawn) :: 2.1
2. COc1cc2sc(CC(C)(Oc3ccc(C(C)C)cc3)C(=O)O)cc2c(Cl)c1OC (stereo not drawn) :: 68
3. CCOC(=O)C(C)(Cc1cc2cc(OC)c(OC)cc2s1)Oc1ccc(C#N)cc1 (stereo not drawn) :: 3.2
4. CCOC(=O)C(C)(Cc1cc2ccccc2s1)C(N)=O (stereo not drawn) :: 0.3
5. COc1cc2sc(/C=C(\Oc3ccc(C(C)C)cc3)C(=O)O)cc2c(Cl)c1OC :: 19
6. COc1cc2cc(CC(C)(Oc3ccc(C#N)cc3)C(N)=O)sc2cc1OC (stereo not drawn) :: 0.4
7. CC(Cc1cc2ccccc2s1)(C(=O)O)C(=O)N1CCOCC1 (stereo not drawn) :: 0.3
8. COc1cc2cc(CC(C)(Oc3ccc(C(=N)N4CCOCC4)cc3)C(=O)O)sc2cc1OC (stereo not drawn) [Example 5, Hydrochloride] :: 0.3
9. CCCCNC(=O)C(C)(Cc1cc2cc(OC)c(OC)cc2s1)Oc1ccc(C#N)cc1 (stereo not drawn) :: 0.4

====

Target: human PPARγ receptor (Homo sapiens, UniProt P37231)
Construct: expressed in transfected cells; host or cells: CV-1 cells, pSG5-based Gal4-PPAR expression vector
Sequence (P37231 204-505): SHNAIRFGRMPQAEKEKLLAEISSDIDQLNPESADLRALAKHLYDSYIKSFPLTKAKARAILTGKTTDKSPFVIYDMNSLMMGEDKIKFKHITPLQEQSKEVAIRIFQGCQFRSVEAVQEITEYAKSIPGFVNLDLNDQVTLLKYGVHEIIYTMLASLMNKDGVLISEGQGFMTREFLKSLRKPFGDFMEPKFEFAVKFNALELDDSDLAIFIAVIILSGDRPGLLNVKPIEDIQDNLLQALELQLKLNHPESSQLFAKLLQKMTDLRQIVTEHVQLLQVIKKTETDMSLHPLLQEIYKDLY
Experiment: Luciferase assay using human PPARγ receptor (Gal4 chimera, CV-1 cells)
Format: cell-based
Settings: 24 h, 1 μM, luciferase activity of Pioglitazone at 1 μM = 100, read-out: PPARγ agonist activity, Relative activity
quantity: Emax at 1 µM (%)

1. COc1cc2cc(CC(C)(Oc3ccc(C#N)cc3)C(=O)O)sc2cc1OC (stereo not shown) :: 81.9
2. COc1cc2cc(CC(C)(Oc3ccc(C(C)C)cc3)C(=O)O)sc2cc1OC (stereo not shown) :: 86.7
3. CC(C)c1ccc(NC(=O)C(C)(Cc2cc3ccccc3s2)C(=O)O)cc1 (stereo not shown) :: 0.3
4. COc1cc2cc(CC(C)(C(=O)O)C(=O)NC3CCCCC3)sc2cc1OC (stereo not shown) :: 0.3

====

// values below are reported Emax at 1 µM
Biological target: human PPARα receptor (Homo sapiens, UniProt Q07869)
Construct: and; expressed in transfected cells; host or cells: CV-1 cells, pSG5-based Gal4-PPAR expression vector
Sequence (Q07869 167-468): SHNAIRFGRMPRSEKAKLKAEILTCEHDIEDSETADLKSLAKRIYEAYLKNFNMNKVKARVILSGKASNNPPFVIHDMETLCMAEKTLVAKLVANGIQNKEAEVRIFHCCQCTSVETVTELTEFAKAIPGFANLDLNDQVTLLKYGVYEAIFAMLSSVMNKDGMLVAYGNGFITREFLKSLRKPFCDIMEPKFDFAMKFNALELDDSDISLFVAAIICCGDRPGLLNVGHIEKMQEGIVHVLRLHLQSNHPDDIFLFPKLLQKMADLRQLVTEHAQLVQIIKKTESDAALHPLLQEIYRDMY
Experiment: Luciferase assay using human PPARα receptor (Gal4 chimera, CV-1 cells)
Type: cell-based
Settings: 24 h, 1 μM, luciferase activity of Wy-14.643 at 10 μM = 100, read-out: PPARα agonist activity, Relative activity
quantity: Emax at 1 µM (%)

1. CCCCNC(=O)C(C)(Cc1cc2cc(OC)c(OC)cc2s1)Oc1ccc(C#N)cc1 (centres unmarked) [Example 16] :: 0.2
2. COc1cc2sc(CC(C)(Oc3ccc(C(C)C)cc3)C(=O)O)cc2c(Cl)c1OC (centres unmarked) [Example 4] :: 2.9
3. COc1cc2sc(/C=C(\Oc3ccc(C(C)C)cc3)C(=O)O)cc2c(Cl)c1OC [Example 6] :: 0.1
4. COc1cc2cc(CC(C)(C(=O)O)C(=O)NC3CCCCC3)sc2cc1OC (centres unmarked) [Example 14] :: 0.2
5. COc1cc2cc(CC(C)(Oc3ccc(C(C)C)cc3)C(=O)O)sc2cc1OC (centres unmarked) [Example 3] :: 116
6. CC(Cc1cc2ccccc2s1)(C(=O)O)C(=O)NC1CCCCC1 (centres unmarked) [Example 10] :: 0.1
7. COc1cc2cc(CC(C)(Oc3ccc(C#N)cc3)C(N)=O)sc2cc1OC (centres unmarked) [Example 15] :: 0.2
8. CC(C)c1ccc(NC(=O)C(C)(Cc2cc3ccccc3s2)C(=O)O)cc1 (centres unmarked) [Example 12] :: 0.2
